- target.under.test: human Endothelial Differentiation Gene 1 (EDG1), S1P1 receptor (Homo sapiens, UniProt P21453)
- Construct: TEV protease site; Gal4-VP16 transcription factor; expressed in transfected cells; host or cells: EDG1-bla/U2OS (Tango GPCR-bla U2OS parental cell line)
- Sequence (P21453 whole entry, the tested form may be a part): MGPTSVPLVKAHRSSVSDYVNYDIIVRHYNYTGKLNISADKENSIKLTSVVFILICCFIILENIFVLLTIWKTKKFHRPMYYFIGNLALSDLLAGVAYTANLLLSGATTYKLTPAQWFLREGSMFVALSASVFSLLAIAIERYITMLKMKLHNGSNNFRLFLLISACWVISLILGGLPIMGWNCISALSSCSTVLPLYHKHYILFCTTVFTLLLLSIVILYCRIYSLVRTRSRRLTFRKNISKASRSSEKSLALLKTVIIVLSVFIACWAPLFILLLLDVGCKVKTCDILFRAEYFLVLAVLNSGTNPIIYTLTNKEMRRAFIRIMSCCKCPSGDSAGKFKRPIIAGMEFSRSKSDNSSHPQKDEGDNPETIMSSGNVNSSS
- assay.name: S1P1 Assay (Tango EDG1-bla/U2OS beta-lactamase reporter, agonist dose response)
- Format: cell-based
- recorded.conditions: EDG1-bla/U2OS cells, blue/green emission ratio, 10 point dose response, free base or salt form; read-out: pEC50 (S1P1 assay) (converted)
Counter-ions that a name gives are not always drawn.
measured.metric: EC50

| compound | EC50 |
| --- | --- |
| CCc1c(CN2CCC(C(=O)O)CC2)cccc1-c1cnc(-c2ccc(OC(C)C)c(C(F)(F)F)c2)s1 [Example 32] | < 1 nM |

Prompt: Specify measured EC50 for CCc1c(CN2CC(C(=O)O)C2)cccc1-c1nsc(-c2ccc(OC(C)C)c(C#N)c2)n1 [Example 17, trifluoroacetate] .
Response: ≤ 10 nM

Prompt: Specify measured EC50 for CCc1c(CN2CCC(C(=O)O)CC2)cccc1-c1nnc(-c2ccc(OC(C)C)c(C(F)(F)F)c2)s1 [Example 1] .
Response: < 1 nM
